Tested on: HT29 intrarenal xenograft, nude mice, tumor weight change
Assay remarks: NCI In Vivo Anticancer Drug Screen. Data for tumor model HT29;CX-1 Human Adenocarcinoma (MER+) (intrarenal inoculation) in NU/NU BALB/C (nude) mice
Condition context: endpoint: mean tumor weight change; dose: 75.0 mg/kg/injection; schedule: Q04DX004 (sc); vehicle: saline with Tween-80; higher = larger tumour
Inconclusive results are not listed.
Parameter measured: T/C

Illustrative cases are given below, each with its answer.
| Compound | Recorded value |
| --- | --- |
| CC1(C)CC2(C)OC2C2(C1)N=NC(=Nc1ccccc1)O2 (stereo unspecified) | 16 % of control |
| CCNC(C)(C)C(SSS)c1ccco1 (stereo unspecified) | 121 % of control |
| c1ccc2c(c1)-c1ccccc1C1NC21 (stereo unspecified) | 41 % of control |
| O=[N+]([O-])c1ccc(N2CCOCC2)c2c1no[n+]2[O-] | 88 % of control |
| COc1cc2c3c(cccc3c1)C(=O)N(CCN(C)C)C2=O | 98 % of control |

Okay, next one:
q: Any idea what T/C came out for FC(F)(F)c1nc2nc(Cl)c(Cl)nc2[nH]1 on HT29 intrarenal xenograft, nude mice, tumor weight change?
a: 112 % of control

====

System: HT29 intrarenal xenograft, nude mice, tumor weight change
Assay remarks: NCI In Vivo Anticancer Drug Screen. Data for tumor model HT29;CX-1 Human Adenocarcinoma (MER+) (intrarenal inoculation) in NU/NU BALB/C (nude) mice
Condition context: endpoint: mean tumor weight change; dose: 100.0 mg/kg/injection; schedule: Q01DX010 (sc); vehicle: Klucel (hydroxypropylcellulose) (HPC); higher = larger tumour
Experimental: The antitumor activity of compounds was measured in mice bearing transplantable tumors. Survival or tumor size were measured and the results are expressed as the measurement made in the treated group (T) divided by the measurement made in the vehicle treated control group (C). The tumor model used in this assay is HT29;CX-1 Human Adenocarcinoma (MER+) (intrarenal inoculation) in NU/NU BALB/C (nude) mice
Records with an inconclusive call do not appear.
Parameter measured: T/C

| Chem smiles | Recorded value |
| --- | --- |
| Cn1cnc([N+](=O)[O-])c1S(=O)(=O)NCN1CCOCC1 | 80 % of control |

q: Any idea what T/C came out for Cc1ccc(S(=O)(=O)N/N=C/C(=O)O)cc1 on HT29 intrarenal xenograft, nude mice, tumor weight change?
a: 87 % of control

q: Also CN(C)N=Nc1ccc(S(N)(=O)=O)cc1 , if possible.
a: 81 % of control

q: Also CCCC(=O)OCc1cc(=O)n(C)c2c3c4c(cc12)c(C)cc(=O)n4CO3 , if possible.
a: 40 % of control

q: Also N#CC(C#N)=C/C=C/c1cccc([N+](=O)[O-])c1 , if possible.
a: 76 % of control

====

Test system: HT29 intrarenal xenograft, nude mice, tumor weight change
Assay remarks: NCI In Vivo Anticancer Drug Screen. Data for tumor model HT29;CX-1 Human Adenocarcinoma (MER+) (intrarenal inoculation) in NU/NU BALB/C (nude) mice
Condition context: endpoint: mean tumor weight change; dose: 150.0 mg/kg/injection; schedule: Q04DX004 (sc); vehicle: saline with Tween-80; higher = larger tumour
Results filed as inconclusive are left out.
Parameter measured: T/C

| Compound | Tested on | T/C |
| --- | --- | --- |
| CCOC(=O)C1(c2ccccc2)C(=O)Oc2ccccc21 (stereo not drawn) | HT29 intrarenal xenograft, nude mice, tumor weight change | 83 % of control |
| CC(=O)Oc1[nH]c(=O)c2cccc3c2c1CCC3 | HT29 intrarenal xenograft, nude mice, tumor weight change | 207 % of control |
| COc1cc2c3c(cccc3c1)C(=O)N(CCN(C)C)C2=O | HT29 intrarenal xenograft, nude mice, tumor weight change | 74 % of control |
| CCNC(C)(C)C(SSS)c1ccco1 (stereo not drawn) | HT29 intrarenal xenograft, nude mice, tumor weight change | 119 % of control |
| O=[N+]([O-])c1ccc(N2CCOCC2)c2c1no[n+]2[O-] | HT29 intrarenal xenograft, nude mice, tumor weight change | 116 % of control |

Okay, next one:
q: Using the record for CC1(C)CC2(C)OC2C2(C1)N=NC(=Nc1ccccc1)O2 (stereo not drawn) , report its T/C.
a: 124 % of control

Numbers sourced from PubChem BioAssay AID208.
